Listed below: Kd values for each entry.
target: UniProt:P36894
Sequence (P36894 whole entry): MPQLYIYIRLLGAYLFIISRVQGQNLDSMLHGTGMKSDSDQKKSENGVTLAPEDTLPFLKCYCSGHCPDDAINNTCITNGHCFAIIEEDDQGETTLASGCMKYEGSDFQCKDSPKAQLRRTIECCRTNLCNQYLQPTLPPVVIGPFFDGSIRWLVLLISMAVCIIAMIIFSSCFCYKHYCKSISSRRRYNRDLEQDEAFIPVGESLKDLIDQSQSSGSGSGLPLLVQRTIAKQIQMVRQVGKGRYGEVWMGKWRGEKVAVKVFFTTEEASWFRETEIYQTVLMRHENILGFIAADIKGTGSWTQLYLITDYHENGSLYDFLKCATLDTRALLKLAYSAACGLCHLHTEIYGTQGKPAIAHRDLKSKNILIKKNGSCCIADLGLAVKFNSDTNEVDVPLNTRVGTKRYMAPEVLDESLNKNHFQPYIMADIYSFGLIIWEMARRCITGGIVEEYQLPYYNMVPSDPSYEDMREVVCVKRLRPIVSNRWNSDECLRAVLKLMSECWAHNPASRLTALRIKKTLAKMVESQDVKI
Activity calls are given as the source filed them.

Look over these answered cases.
>>> measured_value("O=C(Cc1ccc(-c2ccc(OCCN3CCOCC3)cc2)cn1)NCc1ccccc1 [TIRBANIBULIN]")
"> 30 µM (inactive)"
>>> measured_value("Cc1csc(-c2nnc(Nc3ccc(Oc4ncccc4-c4ccnc(N)n4)cc3)c3ccccc23)c1 [AMG-900]")
"> 30 µM (inactive)"

Moving on to the next compound.
Field request: Kd | item: NC(=O)Nc1cc(-c2cccc(F)c2)sc1C(=O)N[C@H]1CCCNC1 [AZD-7762]
> 30 µM (inactive)

====

Active and inactive are the calls of the source.
Data export: Kd values recorded with UniProt P05771.
Sequence (P05771 whole entry): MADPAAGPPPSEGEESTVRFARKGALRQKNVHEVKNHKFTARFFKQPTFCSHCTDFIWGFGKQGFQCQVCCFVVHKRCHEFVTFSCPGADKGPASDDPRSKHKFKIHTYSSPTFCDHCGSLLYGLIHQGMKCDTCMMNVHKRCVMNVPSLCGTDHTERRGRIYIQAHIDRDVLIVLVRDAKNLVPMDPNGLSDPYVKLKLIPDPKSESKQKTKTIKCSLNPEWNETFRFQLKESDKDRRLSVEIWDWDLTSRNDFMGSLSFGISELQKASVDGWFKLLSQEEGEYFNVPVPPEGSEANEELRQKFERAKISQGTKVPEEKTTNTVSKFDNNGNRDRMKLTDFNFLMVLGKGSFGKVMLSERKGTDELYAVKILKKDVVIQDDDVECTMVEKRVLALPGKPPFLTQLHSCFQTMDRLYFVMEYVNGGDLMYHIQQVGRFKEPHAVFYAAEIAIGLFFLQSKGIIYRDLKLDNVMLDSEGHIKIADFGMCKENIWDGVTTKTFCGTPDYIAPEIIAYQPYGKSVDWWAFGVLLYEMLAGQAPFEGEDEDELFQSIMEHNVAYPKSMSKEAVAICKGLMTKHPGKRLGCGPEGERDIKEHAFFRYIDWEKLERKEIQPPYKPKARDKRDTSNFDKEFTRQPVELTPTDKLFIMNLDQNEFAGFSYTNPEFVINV

Look over these answered cases.
>>> measured_value("COc1cc2ncnc(Oc3cccc(NC(=O)Nc4cc(C(C)(C)C(F)(F)F)on4)c3)c2cc1OC [CEP-32496]")
"> 30 µM (inactive)"
>>> measured_value("Cn1cc(-c2cnn3c(N)c(Br)c([C@@H]4CCCNC4)nc23)cn1 [SCH-900776]")
"> 30 µM (inactive)"
>>> measured_value("Nc1ncnc2c1c(-c1cccc(OCc3ccccc3)c1)cn2[C@H]1C[C@@H](CN2CCC2)C1 [AEW-541]")
"> 30 µM (inactive)"

Field request: Kd | item: NC(=O)c1c(OCc2c(F)cc(Br)cc2F)nsc1NC(=O)NCCCCN1CCCC1 [OSI-632]
> 30 µM (inactive)

====

Activity calls are given as the source filed them.
Data export: Kd values recorded with Tyrosine-protein kinase Yes (Homo sapiens, UniProt P07947).
Sequence (P07947 whole entry): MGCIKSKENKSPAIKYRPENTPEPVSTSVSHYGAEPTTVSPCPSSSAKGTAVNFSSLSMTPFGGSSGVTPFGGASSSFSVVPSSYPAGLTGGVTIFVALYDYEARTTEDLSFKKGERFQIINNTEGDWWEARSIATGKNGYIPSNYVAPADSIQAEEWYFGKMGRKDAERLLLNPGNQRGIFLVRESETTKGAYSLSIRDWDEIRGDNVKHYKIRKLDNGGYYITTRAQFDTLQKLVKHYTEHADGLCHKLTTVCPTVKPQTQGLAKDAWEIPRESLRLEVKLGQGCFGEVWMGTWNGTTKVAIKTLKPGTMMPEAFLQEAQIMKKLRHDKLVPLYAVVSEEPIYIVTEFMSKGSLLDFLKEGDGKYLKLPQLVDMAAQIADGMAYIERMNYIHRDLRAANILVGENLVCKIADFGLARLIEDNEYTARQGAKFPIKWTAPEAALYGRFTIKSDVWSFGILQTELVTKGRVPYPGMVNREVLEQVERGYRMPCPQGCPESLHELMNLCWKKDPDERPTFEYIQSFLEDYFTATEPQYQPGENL

>>> measured_value("O=c1[nH]ccc2cc(OC3CCNCC3)ccc12 [SAR-407899 FREE BASE]")
"> 30 µM (inactive)"
>>> measured_value("O=C(Nc1cc(C(F)(F)F)cc(C(F)(F)F)c1)c1cc(Cl)ccc1O [IMD-0354]")
"> 30 µM (inactive)"

Field request: Kd | item: Cc1cccc(-c2nn3c(c2-c2ccnc4ccc(C(N)=O)cc24)CCC3)n1 [GALUNISERTIB]
> 30 µM (inactive)

Quick one: CC(=O)NCC(=O)N1[C@@H]2CC[C@H]1c1ccc(Nc3ncc(C(F)(F)F)c(NC4CCC4)n3)cc12 [PF-03814735]
> 30 µM (inactive)

Quick one: C[C@@H](NC(=O)c1ncnc(N)c1Cl)c1ncc(C(=O)Nc2cc(C(F)(F)F)c(Cl)cn2)s1 [TOVORAFENIB]
> 30 µM (inactive)

Quick one: CC(=O)c1cnc2ccc(-c3cc(Cl)c(O)c(Cl)c3)nc2c1N[C@H]1CC[C@H](CN(C)C)CC1
> 30 µM (inactive)

====

Data export: Kd values recorded with Mitogen-activated protein kinase kinase kinase 3 (Homo sapiens, UniProt Q99759).
Sequence (Q99759 whole entry): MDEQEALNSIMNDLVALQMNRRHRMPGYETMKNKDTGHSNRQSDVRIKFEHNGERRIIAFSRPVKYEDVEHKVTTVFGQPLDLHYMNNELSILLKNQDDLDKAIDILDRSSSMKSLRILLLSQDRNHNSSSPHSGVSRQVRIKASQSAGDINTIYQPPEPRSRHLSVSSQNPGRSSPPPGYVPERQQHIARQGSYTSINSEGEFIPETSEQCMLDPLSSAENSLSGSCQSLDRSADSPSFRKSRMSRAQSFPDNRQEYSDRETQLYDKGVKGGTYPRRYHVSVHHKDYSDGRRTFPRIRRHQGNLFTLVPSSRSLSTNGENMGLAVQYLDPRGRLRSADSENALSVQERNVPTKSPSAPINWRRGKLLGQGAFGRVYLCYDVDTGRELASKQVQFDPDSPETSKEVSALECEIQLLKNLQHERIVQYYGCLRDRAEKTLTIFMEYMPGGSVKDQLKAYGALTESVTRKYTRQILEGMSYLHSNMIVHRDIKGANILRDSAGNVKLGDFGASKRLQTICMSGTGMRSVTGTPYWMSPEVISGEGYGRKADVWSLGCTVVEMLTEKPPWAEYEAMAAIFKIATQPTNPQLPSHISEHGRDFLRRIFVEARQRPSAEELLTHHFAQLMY
The source made the active and inactive calls.

Look over these answered cases.
>>> measured_value("Cc1cc(C(=O)NOCCO)c(Nc2ccc(I)cc2F)n(C)c1=O")
"> 30 µM (inactive)"
>>> measured_value("CO[C@H]1C[C@@H]2CC[C@@H](C)[C@@](O)(O2)C(=O)C(=O)N2CCCC[C@H]2C(=O)O[C@H]([C@H](C)C[C@@H]2CC[C@@H](O)[C@H](OC)C2)CC(=O)[C@H](C)/C=C(\\C)[C@@H](O)[C@@H](OC)C(=O)[C@H](C)C[C@H](C)/C=C/C=C/C=C/1C")
"> 30 µM (inactive)"
>>> measured_value("Cc1nc(Nc2n[nH]c3c2CN(C(=O)N[C@H](CN(C)C)c2ccccc2)C3(C)C)c2sccc2n1")
"> 30 µM (inactive)"
>>> measured_value("NC(=O)Nc1cc(-c2cccc(F)c2)sc1C(=O)N[C@H]1CCCNC1")
"> 30 µM (inactive)"
>>> measured_value("CNC(=O)c1nn(C)c2c1C(C)(C)Cc1cnc(Nc3ccc(N4CCN(C)CC4)cc3)nc1-2")
"> 30 µM (inactive)"
>>> measured_value("CCn1cc(-c2ccnc3[nH]c(-c4cccc(CN(C)C)c4)cc23)c(-c2ccc(NC(=O)N(C)C)cc2)n1")
"> 30 µM (inactive)"

Field request: Kd | item: O=C(Nc1c[nH]nc1-c1nc2cc(CN3CCOCC3)ccc2[nH]1)NC1CC1
0.345 µM (active)

Quick one: CCNC(=O)C#Cc1ccc2c(c1)NC(=O)/C2=C(\Nc1ccc(CN(C)C)cc1)c1ccccc1
> 30 µM (inactive)

Quick one: COc1cc([C@@H]2c3cc4c(cc3[C@H](O)[C@H]3COC(=O)[C@@H]23)OCO4)cc(OC)c1OC
> 30 µM (inactive)

Quick one: NC1(c2ccc(-c3nc4ccn5c(=O)[nH]nc5c4cc3-c3ccccc3)cc2)CCC1
> 30 µM (inactive)

Quick one: C#Cc1cccc(Nc2ncnc3cc(OC)c(OCCCCCCC(=O)NO)cc23)c1
> 30 µM (inactive)
